Would you kindly list growth for each of these molecules?
System: SW-620 colon
Experiment: NCI-60 one-dose screen, 48 h (100 = growth as untreated, 0 = no growth, -100 = all killed)
Settings: 10 µM unless noted
The panel holds about 83,000 compounds, 20% with a hit somewhere; the sample as a whole holds those more often.
Give bare numbers, in %.

O=S(=O)(Nc1ccc(Br)cc1)c1ccc(-c2cnc(C3CC3)o2)cc1 11.1
NCCNc1ccc([N+](=O)[O-])cc1 112
COC1=C(OC)C(=O)C(CCCCCCCCCCO)=C(C)C1=O 103
C=C(c1ccc(C(=O)O)c(F)c1)c1cc2c(cc1C)C(C)(C)C=CC2(C)C 110
COC(=O)CCc1c(/C=C2\N=C(c3ccc[nH]3)C=C2OC)[nH]c(C)c1C(=O)OCc1ccccc1 3.31

Parameters: items (list). Returns: growth for each item.
1. Cc1c(N2CCCCC2)[nH]c2ccccc12
2. COc1nc2ccccc2cc1/C=C1/C=C(c2ccccc2)NC1=O
3. CCOC(=O)c1cnc2sc(-c3ccc(OC)cc3)nc2c1Cl
4. C=C(C)[C@@H]1CC[C@]2(COC(=O)c3cccnc3)CC[C@]3(C)[C@H](CC[C@@H]4[C@@]5(C)CCCN(C(=O)c6cccnc6)C(C)(C)[C@@H]5CC[C@]43C)[C@@H]12

100
27.7
114
32.2

---

System: SK-MEL-5 melanoma
Assay: NCI-60 one-dose screen, 48 h
Conditions: 10 µM unless noted
Compounds without any hit were thinned out: in the full panel of roughly 83,000, 20% have a hit. Active and inactive are the calls of the source. Rule for the calls: active = growth percent below 10; inactive = the rest.
Please answer using one outcome listed in active, inactive

Previously resolved entries follow.
compound	qualitative.label
O=c1ccc2c(ccc3ncccc32)o1	inactive
COc1ccc(NC(=O)CSc2oc(-c3ccccc3)nc2S(=O)(=O)c2ccc(Cl)cc2)c(OC)c1	inactive
O=C1/C(=C/c2ccc(-c3ccc(Cl)cc3)o2)SC(=S)N1CCc1ccc(O)cc1	inactive
CCOC(=O)c1c(C)nc2c(c1N)C(=O)C(=O)N2CCc1ccc(OC)c(OC)c1	inactive
COc1ccc(/C=N/NC(=O)Cn2nnc3ccccc32)cc1	inactive
C=C(c1ccc(C(=O)O)c(F)c1)c1cc2c(cc1C)C(C)(C)C=CC2(C)C	inactive
O=C1c2ccccc2-c2c1c1ccncc1c(=O)n2CCCn1ccnc1	inactive
CCN1C(=O)N(CC)C2C1NC(=S)N2/N=C/C=C/c1cccs1 (configuration not stated)	inactive

Outcome? Cc1ccc(Nc2nc(N)nc(N)c2N=O)cc1Cl
inactive

Outcome? O=C(NS(=O)(=O)c1ccccc1)n1cc(-c2ccncc2)c(-c2cc(O)cc(Cl)c2)n1
inactive

Outcome? O=C1NCCS(=O)(=O)/C1=C\C=C\c1cccc(C(F)(F)F)c1
inactive

Outcome? C=CCOC(=O)C1=C(C)N(CC)C(=O)N(CC)C1c1c(Cl)n(C)c2ccccc12 (configuration not stated)
inactive

Outcome? Cc1c(CC(=O)Nc2ccccc2)nnn1-c1ccccc1
inactive

---

Would you kindly list growth for each of these compounds?
Tested on: TK-10 renal
Assay: NCI-60 one-dose screen, 48 h (100 = growth as untreated, 0 = no growth, -100 = all killed)
Conditions: 10 µM unless noted
Protocol: Growth inhibition of the TK-10 human tumor cell line is measured as a screen for anti-cancer activity. Cells are grown in 96 well plates and exposed to the test compound for 48 hours. Compounds are tested at a single concentration, which is 10^-5 M for most compounds. The reported endpoint is percent growth (GI% or GIPRCNT), where numbers from 0 - 100% represent growth inhibition, and numbers from -100% - 0 represent cell death. For example, a value of 40 represents 60% growth inhibition. […]
The panel holds about 83,000 compounds, 20% with a hit somewhere; the sample as a whole holds those more often.
Give bare numbers, in %.

Worked examples follow.
compound	system.under.test	unit.name	growth
CCCCCCCCCCCCCC[n+]1ccc2c(C)c3c(c(C)c2c1)c1cc(O)ccc1n3CC	TK-10 renal	%	-46.6
Clc1ccc2c(NCCCn3cnc4c(N5CCCC5)nc(Cl)nc43)ccnc2c1	TK-10 renal	%	102
Cc1oc2ccc(O)c(CN3CCCCCC3)c2c1C(=O)Nc1ccc(C(F)(F)F)cc1	TK-10 renal	%	81.1
O=S(=O)(c1ccc(NCSc2nc3ccccc3s2)cc1)c1ccc(NCSc2nc3ccccc3s2)cc1	TK-10 renal	%	92.6

Could you now look at the following compound, please?
Identify the reported growth for the following entry. CCOC(=O)C1=C(c2ccccc2)N=C2SC=C(c3cccc([N+](=O)[O-])c3)N2C1c1ccc(O)cc1 (stereo not given)
104

---

Tested on: DU-145 prostate
Assay: NCI-60 one-dose screen, 48 h (100 = growth as untreated, 0 = no growth, -100 = all killed)
Conditions: 10 µM unless noted
Compounds without any hit were thinned out: in the full panel of roughly 83,000, 20% have a hit.
Consider the cut-off 90%. If the recorded growth is strictly smaller, the label is Met; if not, the label is Not met.

Previously resolved entries follow.
compound	system.under.test	qualitative.label
Cc1c(Cl)cccc1NC(=O)c1sc2nc3c(cc2c1N)CCCC3	DU-145 prostate	Met
Cc1c(C(=O)C(SC(=S)N2CCOCC2)SC(=S)N2CCOCC2)nnn1-c1ccc([N+](=O)[O-])cc1	DU-145 prostate	Not met
CCCCCN(CCCCC)CC(O)c1c(Cl)ccc2ccccc12 (stereo unspecified)	DU-145 prostate	Met

Find out if reported growth for CNC1=C(Br)C(=O)c2c(C(=O)OC)c(C)nc(C)c2C1=O is less than 90%
Met

Find out if reported growth for O=C(CSc1nc(-c2ccccc2)cn1-c1ccc(Cl)cc1)c1ccc([N+](=O)[O-])cc1 is less than 90%
Not met

Find out if reported growth for O=C(Oc1ccccc1)c1cc(O)c(O)c(O)c1 is less than 90%
Met

Find out if reported growth for COC1CC(O)C2=C(CC3C(/C(C)=C\CC=C(C)C)CCC3(C)O2)C1=O (stereo unspecified) is less than 90%
Not met

Find out if reported growth for COC(=O)c1sc(-c2ccc(C)cc2)cc1O is less than 90%
Not met

Find out if reported growth for O=C(N/N=C/c1ccccc1Cl)c1ccccc1Nc1ccnc(C(F)(F)F)c1 is less than 90%
Met

Find out if reported growth for CCOC(=O)CC1C(CNC(=O)NC)OC(n2cnc3c(NC(=O)Nc4ccccc4)ncnc32)C1O[Si](C)(C)C(C)(C)C (stereo unspecified) is less than 90%
Met

Find out if reported growth for CC(C)C(=O)Nc1ncc(C(=O)NCCN(Cc2ccccc2)C(=O)c2ccc(S(=O)(=O)Nc3ccccc3)cc2)s1 is less than 90%
Not met

---

System: NCI-H23 lung
Test: NCI-60 one-dose screen, 48 h
Settings: 10 µM unless noted
About 83,000 compounds went through this panel and 20% of them were active in at least one assay; those are over-represented in the sample as a whole. Calls of active or inactive are those of the source. The calls were made as follows: active = growth percent below 10; inactive = the rest.
Please answer using one outcome listed in class 1 for active, class 0 for inactive

compound	qualitative.label
O=C(Nc1ncc(Cc2ccc(Cl)cc2)s1)c1ccc2c(c1)OCCO2	class 0
N#CSCc1cc(Cl)c(CSC#N)cc1Cl	class 0
Nc1ncc(-c2ccc3ncnc(N4CCc5cc(F)c(Cl)cc54)c3c2)cc1C=O	class 0
CC1(C)CCC[C@]23C(=O)O[C@](O)(C(=O)C4=C[C@@](C)(/C=C/CCCc5ccc6ccc7cccc8ccc5c6c78)CC[C@@]42O)[C@@H]13	class 1
CCOC(=O)c1c(Nc2nc3ccccc3s2)sc2c1CCC(=O)C2	class 0
N#Cc1c(-c2ccc(F)cc2)cc(-c2cccc(Cl)c2)[nH]c1=O	class 0
CC(C)n1cc(C2=C(c3cccc4ccccc34)C(=O)NC2=O)c2cc(Br)ccc21	class 0
COC(=O)c1sc(-c2ccc(C)cc2)cc1O	class 0

Now look at this one.
Outcome? CCC(C)C(N)C(=O)NC(CC(C)C)C(=O)N1CCCC1C(=O)NC(Cc1c[nH]c2ccccc12)C(=O)NC(CCCCN)C(=O)NC(Cc1c[nH]c2ccccc12)C(=O)N1CCCC1C(=O)NC(Cc1c[nH]c2ccccc12)C(=O)NC(Cc1c[nH]c2ccccc12)C(=O)N1CCCC1C(=O)NC(Cc1c[nH]c2ccccc12)C(=O)NC(CCCNC(=N)N)C(=O)NC(CCCNC(=N)N)C(N)=O (stereo not given)
class 0

---

System: RXF 393 renal
Experiment: NCI-60 one-dose screen, 48 h (100 = growth as untreated, 0 = no growth, -100 = all killed)
Settings: 10 µM unless noted
Method: Cells are grown in 96 well plates and exposed to the test compound for 48 hours. Compounds are tested at a single concentration, which is 10^-5 M for most compounds. The reported endpoint is percent growth (GI% or GIPRCNT), where numbers from 0 - 100% represent growth inhibition, and numbers from -100% - 0 represent cell death. For example, a value of 40 represents 60% growth inhibition. A value of 0 means no net growth occurred over the course of the experiment. […]
About 83,000 compounds went through this panel and 20% of them were active in at least one assay; those are over-represented in the sample as a whole. Active and inactive are the calls of the source. The calls were made as follows: active = growth percent below 10; inactive = the rest.
Would you kindly list growth for each of these molecules?

Worked examples follow.
molecule	recorded.measurement
O=C1CCc2c(sc3[nH]c(=S)n(-c4cc(C(F)(F)F)cc(C(F)(F)F)c4)c(=O)c23)C1	-3.65% (active)
COc1ccc(CNc2c3ccccc3nc3ccccc23)cc1OC	3.58% (active)

Parameters: items (list). Returns: growth for each item.
1. OC1CSSC1Cn1cnc2c(Nc3ccc(F)c(Cl)c3)ncnc21 (stereo not drawn)
2. O=C(NS(=O)(=O)c1ccccc1)n1cc(-c2ccncc2)c(-c2cc(O)cc(Cl)c2)n1

["114% (inactive)", "112% (inactive)"]
